Where do the numbers come from? From patent US7838294B2.

# assay_system: T1, JNK1 (Homo sapiens, UniProt P45983)
# T1 construct: expressed in transfected cells
# T1 sequence (P45983 1-384 isoform P45983-2): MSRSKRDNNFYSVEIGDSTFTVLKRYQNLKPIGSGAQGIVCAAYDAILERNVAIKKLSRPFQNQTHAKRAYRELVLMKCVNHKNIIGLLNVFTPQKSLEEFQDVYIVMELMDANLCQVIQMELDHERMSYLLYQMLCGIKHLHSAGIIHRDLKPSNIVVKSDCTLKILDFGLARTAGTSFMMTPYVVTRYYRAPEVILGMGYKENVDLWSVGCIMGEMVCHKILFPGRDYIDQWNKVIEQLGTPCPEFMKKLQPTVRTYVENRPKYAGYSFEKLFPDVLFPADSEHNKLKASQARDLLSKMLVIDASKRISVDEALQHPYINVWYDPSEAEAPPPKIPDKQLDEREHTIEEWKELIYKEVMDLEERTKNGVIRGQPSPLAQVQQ
# assay_name: GST-fusion pull-down from cell lysates, Flag immunoblot: JNK1
# Format: binding
# run_conditions: 5 μg GST-fusion protein on glutathione-Sepharose, Flag-JNK1 lysate, one hour 4° C.
measure_name: binding to JNK1

INSERT INTO assay_data (molecule, measure_name, readout_value) VALUES
  ('GST-JIP-1 residues 127-281: GST fusion protein containing residues 127-281 of JIP-1 (protein, left off: a dimerising Fc or GST) PKAESNQDPAPRSQGQGPGTGSGDTYRPKRPTTLNLFPQVPRSQDTLNNNSLGKKHSWQDRVSRSSSPLKTGEQTPPHEHICLSDELPPQGSPVPTQDRGTSTDSPCRRSAATQMAPPSGPPATAPGGRGHSHRDRIHYQADVRLEATEEIYLTP', 'binding to JNK1', 'bound');
